B1: PPEF2 (parent)
chain: AFKAAALIQRWYRRYVARLEMRRR

# Variants of: B1
# protocol_summary: protein stability index of a GFP-peptide fusion (GPS, HEK-293T) (PSI 1-6); higher = more stable;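 note: lentivirally expressed fusions sorted by FACS into six bins by GFP to DsRed ratio, PSI derived from sequencing read proportions per bin multiplied by bin number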
# condition: c terminus: a fixed tail appended
Entries are grouped by protein stability index into these classes: 1 (below 2), 2 (2 to below 3), 3 (3 or more)

INSERT INTO results (seq_text, assigned_category) VALUES
  ('AFKAAALIQRWYRRYVNRLEMRRR [A17N]', 3),
  ('AFKAAALIQHWYRRYVARLEMRRR [R10H]', 2),
  ('AFKAAALIQRWYRRYVARFEMRRR [L19F]', 2),
  ('AFKAAALIQRWYRHYVARLEMRRR [R14H]', 2),
  ('AFKAAALIQRWYRRYVARLEMIRR [R22I]', 1),
  ('AFKAAALIQRWYRRYIARLEMRRR [V16I]', 3),
  ('AFKAAALIQRWYRRTVARLEMRRR [Y15T]', 3),
  ('AFKAAALINRWYRRYVARLEMRRR [Q9N]', 2),
  ('AFKAAALIQRWYRRYVPRLEMRRR [A17P]', 2),
  ('AFKAAALIQRWYRRLVARLEMRRR [Y15L]', 3),
  ('AFKAAALIQRWYRRYVARLEHRRR [M21H]', 3),
  ('AFKAAALIQRWIRRYVARLEMRRR [Y12I]', 2),
  ('AFKAAALIQRWYRRYVARLENRRR [M21N]', 3),
  ('AFKAAALIQRWYRLYVARLEMRRR [R14L]', 1),
  ('AFKAAALIQRWYRRYVARLPMRRR [E20P]', 3),
  ('AFKAAALIQRWTRRYVARLEMRRR [Y12T]', 2),
  ('AFKAAALIQRWYRIYVARLEMRRR [R14I]', 1),
  ('AFKAAALIQRWHRRYVARLEMRRR [Y12H]', 2),
  ('AFKAAALIQRWYRRYVTRLEMRRR [A17T]', 3),
  ('AFDAAALIQRWYRRYVARLEMRRR [K3D]', 2);

Origin of values: the supplement of paper PMC10567573
